Taken from the MegaScale stability set (Tsuboyama et al. 2023).

B1: HHH_rd1_0493 (parent)
chain: RDEDEKEKIKEALKRGNEDKAKEIAKRANVSPEEYERLRKEAE

variants of: B1; experiment: folding stability dG (cDNA display proteolysis); higher = more stable; settings: PBS, room temperature
PROPERTY_NAME: folding stability dG (kcal/mol)
Report as a plain number; the unit kcal/mol is understood.

Measured folding stability dG of D4W : 3.02

Measured folding stability dG of K26Q : 2.99

Value of folding stability dG reported for the variant K26N is 2.64

Form: variant = K20R ; folding stability dG = 3

According to the records, this variant E7N displays folding stability dG of 2.96

GET /value?item= K14Q &field=folding stability dG returns 2.3
